Sourced from patent US20230304058A1

# Test system: mRNA
# assaySummary: mRNA capping rate by RNase H cleavage and LC-MS
# Assay type: biochemical
# runConditions: ratio of capped and uncapped mRNA
Listed next: entries and their corresponding mRNA capping rates when using different Cap structures.
reportedMetric: mRNA capping rates when using different Cap structures (%)

>>> reported("CO[C@@H]1[C@H](O)[C@@H](COP(=O)(O)O[C@H]2[C@@H](OC)[C@H](n3cnc4c(N)ncnc43)O[C@@H]2COP(=O)(O)OP(=O)(O)OP(=O)([O-])OC[C@H]2O[C@@H](n3c[n+](C)c4c(=O)[nH]c(N)nc43)[C@H](O)[C@@H]2OC)O[C@H]1n1ccc(=O)[nH]c1=O [Cap analog 29, 3-O-Me-m7G(5′)ppp(5′)(2′OMeA)p(2′OMeU)]")
94.93
>>> reported("CO[C@@H]1[C@H](OP(=O)(O)OC[C@H]2O[C@@H](n3cnc4c(=O)[nH]c(N)nc43)[C@H](OC)[C@@H]2O)[C@@H](COP(=O)(O)OP(=O)(O)OP(=O)([O-])OC[C@H]2O[C@@H](n3c[n+](C)c4c(=O)[nH]c(N)nc43)[C@H](O)[C@@H]2OC)O[C@H]1n1ccc(N)nc1=O [Cap analog 19, 3-O-Me-m7G(5′)ppp(5′)(2′OMeC)p(2′OMeG)]")
95

----------
# tgt: T7 Enzyme Mix (Escherichia phage T7, UniProt P00573)
# Sequence (P00573 whole entry): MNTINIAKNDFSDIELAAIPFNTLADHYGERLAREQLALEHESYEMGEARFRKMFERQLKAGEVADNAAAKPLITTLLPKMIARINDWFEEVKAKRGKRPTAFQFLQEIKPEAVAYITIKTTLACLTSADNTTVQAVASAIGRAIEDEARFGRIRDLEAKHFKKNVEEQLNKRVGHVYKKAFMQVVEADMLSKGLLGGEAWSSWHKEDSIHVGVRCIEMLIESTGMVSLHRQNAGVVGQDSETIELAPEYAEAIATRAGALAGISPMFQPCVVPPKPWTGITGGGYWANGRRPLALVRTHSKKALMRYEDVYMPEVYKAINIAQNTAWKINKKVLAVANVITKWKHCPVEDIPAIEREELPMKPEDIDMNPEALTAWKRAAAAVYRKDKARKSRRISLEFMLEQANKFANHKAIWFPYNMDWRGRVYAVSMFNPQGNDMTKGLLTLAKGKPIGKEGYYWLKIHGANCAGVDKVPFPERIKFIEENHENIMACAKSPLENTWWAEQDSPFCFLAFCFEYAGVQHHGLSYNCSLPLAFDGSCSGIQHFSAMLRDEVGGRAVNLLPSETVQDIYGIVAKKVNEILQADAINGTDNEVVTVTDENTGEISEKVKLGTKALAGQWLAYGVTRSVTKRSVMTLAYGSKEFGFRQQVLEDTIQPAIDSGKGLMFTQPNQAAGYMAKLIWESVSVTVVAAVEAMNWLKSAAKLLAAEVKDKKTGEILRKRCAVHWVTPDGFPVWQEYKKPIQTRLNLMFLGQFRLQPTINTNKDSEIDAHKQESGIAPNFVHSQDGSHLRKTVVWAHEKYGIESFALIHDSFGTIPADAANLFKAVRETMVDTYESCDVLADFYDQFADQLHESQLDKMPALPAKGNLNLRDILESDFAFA
# assaySummary: In vitro transcription mRNA synthesis with cap analog, reaction yield
# Type: biochemical
# runConditions: per ml transcription reaction system; 37° C. for 6 h; LiCl purification
Listed next: entries and their corresponding Mass of final product obtained from 1 ml mRNA synthesis reaction system.
reportedMetric: Mass of final product obtained from 1 ml mRNA synthesis reaction system (mg)

>>> reported("CO[C@@H]1[C@H](OP(=O)(O)OC[C@H]2O[C@@H](n3cnc4c(N)ncnc43)[C@H](OC)[C@@H]2O)[C@@H](COP(=O)(O)OP(=O)(O)OP(=O)([O-])OC[C@H]2O[C@@H](n3c[n+](C)c4c(=O)[nH]c(N)nc43)[C@H](O)[C@@H]2OC)O[C@H]1n1ccc(=O)[nH]c1=O")
4.7
>>> reported("CO[C@@H]1[C@H](O)[C@@H](COP(=O)(O)O[C@H]2[C@@H](OC)[C@H](n3cnc4c(=O)[nH]c(N)nc43)O[C@@H]2COP(=O)(O)OP(=O)(O)OP(=O)([O-])OC[C@H]2O[C@@H](n3c[n+](C)c4c(=O)[nH]c(N)nc43)[C@H](O)[C@@H]2OC)O[C@H]1n1ccc(=O)[nH]c1=O")
5.3
>>> reported("CO[C@@H]1[C@H](OP(=O)(O)OC[C@H]2O[C@@H](n3cnc4c(=O)[nH]c(N)nc43)[C@H](OC)[C@@H]2O)[C@@H](COP(=O)(O)OP(=O)(O)OP(=O)([O-])OC[C@H]2O[C@@H](n3c[n+](C)c4c(=O)[nH]c(N)nc43)[C@H](O)[C@@H]2OC)O[C@H]1n1ccc(=O)[nH]c1=O")
4.6
>>> reported("CO[C@@H]1[C@H](O)[C@@H](COP(=O)(O)O[C@H]2[C@@H](OC)[C@H](n3ccc(N)nc3=O)O[C@@H]2COP(=O)(O)OP(=O)(O)OP(=O)([O-])OC[C@H]2O[C@@H](n3c[n+](C)c4c(=O)[nH]c(N)nc43)[C@H](O)[C@@H]2OC)O[C@H]1n1ccc(=O)[nH]c1=O")
4.5
>>> reported("CO[C@@H]1[C@H](O)[C@@H](COP(=O)(O)O[C@H]2[C@@H](OC)[C@H](n3ccc(=O)[nH]c3=O)O[C@@H]2COP(=O)(O)OP(=O)(O)OP(=O)([O-])OC[C@H]2O[C@@H](n3c[n+](C)c4c(=O)[nH]c(N)nc43)[C@H](O)[C@@H]2OC)O[C@H]1n1ccc(=O)[nH]c1=O")
4.3
>>> reported("CO[C@@H]1[C@H](O)[C@@H](COP(=O)(O)O[C@H]2[C@@H](OC)[C@H](n3ccc(N)nc3=O)O[C@@H]2COP(=O)(O)OP(=O)(O)OP(=O)([O-])OC[C@H]2O[C@@H](n3c[n+](C)c4c(=O)[nH]c(N)nc43)[C@H](O)[C@@H]2O)O[C@H]1n1ccc(=O)[nH]c1=O")
4.6
